Hey, just so you know, these numbers are from PubChem BioAssay (NCI).

system: MDA-MB-435 melanoma; assay: NCI-60 one-dose screen, 48 h; conditions: 10 µM unless noted
Compounds without any hit were thinned out: in the full panel of roughly 83,000, 20% have a hit. Calls of active or inactive are those of the source. The calls were made as follows: active = growth percent below 10; inactive = the rest.
Allowed answers: active, inactive

# count of solved cases: 3
C=C1C(=O)O[C@H]2[C@H]1CC/C(COC(=O)CSCCSCC(=O)OC/C1=C/CC[C@@]3(C)O[C@H]3[C@H]3OC(=O)C(=C)[C@@H]3CC1)=C\CC[C@@]1(C)O[C@@H]21
inactive
CCn1cc(C(=O)N/N=C/c2cccs2)c(=O)c2cc(F)c(N3CCNC(C)C3)c(F)c21 (centres undefined)
inactive
CCOC(=O)c1c(C)nc2c(c1N)CC(=O)N2Cc1cc(F)cc(Cl)c1
inactive

Continue with the next compound.
Returns: the outcome recorded for O=C1/C(=C/c2ccc(Cl)cc2)COc2ccc(O)c(O)c21 in this assay. active

----------
tested on: EKVX NSCLC; assay: NCI-60 one-dose screen, 48 h; settings: 10 µM unless noted
Compounds without any hit were thinned out: in the full panel of roughly 83,000, 20% have a hit. The source made the active and inactive calls. Rule for the calls: active = growth percent below 10; inactive = the rest.
The categories you may choose from are yes (1) for active, no (0) for inactive

As a guide, the following entries are already answered.
Cn1c(O)c(C=NCCN=Cc2c(O)n(C)c(=O)n(C)c2=O)c(=O)n(C)c1=O
no (0)
C#Cc1cccc(Nc2ncnc3ccc(-c4cnc(N)nc4)cc23)c1
yes (1)
COc1cccc(/C=C/C(=O)c2cc3c(N)c(C(=O)Nc4ccccc4)sc3nc2C)c1
no (0)

// return assay outcome for COc1ccc2[nH]cc(-c3nc(-c4cn(C)c5c(Cl)nccc45)cs3)c2c1 no (0)

Dear all, I need the recorded test outcome for COc1ccc(-c2cc(-c3ccc(Cl)cc3)c(C#N)c(=O)n2CCCCC(=O)Nc2ccccc2N)cc1 , thank you. no (0)

----------
tested on: HOP-62 NSCLC; test: NCI-60 one-dose screen, 48 h; settings: 10 µM unless noted
The panel holds about 83,000 compounds, 20% with a hit somewhere; the sample as a whole holds those more often. The source made the active and inactive calls. The calls were made as follows: active = growth percent below 10; inactive = the rest.
// one of active, inactive, no free text

Some solved cases for reference:
N=C(N)c1ccc(-c2ccc(-c3cc(Cl)cc(Cl)c3)o2)o1
active
O=C(OCc1ccc2cccc(O)c2n1)N1CCN(C(=O)c2cc3cc(F)ccc3[nH]2)CC1
active
C#CCOc1cccc(Nc2ncnc3ccc(NC(=O)CCl)cc23)c1
active
COc1ccc(C(=S)N2CCN(c3ccccc3Cl)CC2)cc1OC
inactive

Test call, this molecule: CCNc1cc(-c2cccc(OC(F)(F)F)c2)nc2ccc(N3CCCC3)cc12 active

----------
tested on: HCC-2998 colon; test: NCI-60 one-dose screen, 48 h (100 = growth as untreated, 0 = no growth, -100 = all killed); conditions: 10 µM unless noted
About 83,000 compounds went through this panel and 20% of them were active in at least one assay; those are over-represented in the sample as a whole. Calls of active or inactive are those of the source. How the source made its calls: active means growth percent below 10; inactive means the rest.
quantityKind: growth

Study these solved cases before continuing.
Cc1c(-c2nc3ccc(F)cc3c(=O)[nH]2)c2ccccc2n1C
53% (inactive)
O=C1c2c(c3c4ccc(Br)cc4oc3c3[nH]c4ccccc4c23)C(=O)N1O
66.9% (inactive)
CCOP(=O)(OCC)c1nc(-c2ccccc2)oc1NCc1cccnc1
106% (inactive)
COc1cc(/C=C/C(=O)c2cccc(Nc3nc(Nc4ccccc4)nc(Nc4ccccc4)n3)c2)cc(OC)c1OC
16.7% (inactive)
CS(=O)(=O)Nc1cc(-c2ccc3ncnc(Nc4ccc5c(cnn5Cc5ccccn5)c4)c3c2)cnc1Cl
80.4% (inactive)

Please state, for each entry, its recorded growth.
1. COc1cc(-n2cc(-c3cc(O)c(C/C=C(\C)CCC=C(C)C)c(O)c3)nn2)cc2c1O[C@]1(C)CC[C@@H](O)C(C)(C)[C@H]1C2
2. COc1ccc2[nH]cc(-c3nc(-c4c[nH]c5ccncc45)cs3)c2c1
3. Nc1nc2c([nH]1)c1[nH]c3ccccc3c1c1[nH]c3ccccc3c21
4. COc1cc(CNC(=O)CCCC/C=C/C(C)C)ccc1OCc1nnc(Nc2ccc([N+](=O)[O-])cc2)o1
5. COc1ccc(-c2nn(-c3ccccc3)cc2/C=C2/SC(=S)N(C)C2=O)cc1
6. COc1ccc(C(=O)C2C(c3ccc(OC)cc3)CN(C)C23C(=O)Nc2ccccc23)cc1 (centres undefined)
7. Clc1ccc(Nc2nnc(COc3ccccc3)c3ccccc23)cc1
8. c1cnc2[nH]cc(-c3csc(-c4cn(CCCN5CCOCC5)c5ccccc45)n3)c2c1

10.2% (inactive)
-45.8% (active)
-70.6% (active)
83.6% (inactive)
98.9% (inactive)
88.4% (inactive)
8.55% (active)
58.6% (inactive)

List growth for every entry below, keeping the order given.
1. O=C1c2cccnc2C(=O)c2c1c(C(=O)NCCn1ccnc1)c1ccccn21
2. COc1ccc(-c2nc3c(c(-c4ccccc4)nn3-c3ccccc3)c(-c3ccc(N4CCN(C)CC4)cc3)c2C#N)cc1
3. CC[C@@H](C(=O)[C@@H](C)[C@@H](O)[C@H](C)[C@@H]1O[C@@H]([C@@H](CC)C(=O)NCCc2ccc(F)cc2)CC[C@@H]1C)C1O[C@]2(C=CC(=O)[C@]3(CC[C@@](C)([C@H]4CC[C@](O)(CC)[C@H](C)O4)O3)O2)[C@H](C)C[C@@H]1C (some centres undefined)
4. CCSc1nc(NC)c2cc(-c3ccc(C(F)(F)F)cc3)ccc2n1

22.4% (inactive)
106% (inactive)
63.8% (inactive)
111% (inactive)

// each compound listed below needs its growth
1. O=S(=O)(NCCNc1nccc(-c2c(-c3cccc(F)c3)nc3occn23)n1)c1ccc(Br)cc1
2. O=C(Cn1c(=O)sc2ccccc21)NNS(=O)(=O)c1ccccc1[N+](=O)[O-]
3. Nc1c(C(=O)Nc2ccncc2)sc2nc3c(cc12)CCCCCC3

1: 106% (inactive); 2: 107% (inactive); 3: 94.1% (inactive)

Batch lookup, growth per entry.
1. O=C1NCCC12CCN(c1c(Cl)cncc1-c1ccc(O)cc1)CC2
2. CCCCN1C(=O)/C(=c2\sc3n(c2=O)C2C(NN=3)N(CC)C(=O)N2CC)c2ccccc21 (centres undefined)

120% (inactive)
6.49% (active)
